- experiment.description: Stability in dog hepatocytes assessed as compound remaining after 90 mins
- Assay type: ADME, cell-based, Canis lupus familiaris, Hepatocyte
- test.context: read-out: Stability

compound.string	remaining at 1.5 h (%)
Cc1nc(S(C)(=O)=O)ccc1Oc1ncnc(OC2CCN(C(=O)OC3(C)CC3)CC2)c1F	89

====

- target.desc: Glucose-dependent insulinotropic receptor (Rattus norvegicus, UniProt Q7TQN8)
- Sequence (Q7TQN8 whole entry): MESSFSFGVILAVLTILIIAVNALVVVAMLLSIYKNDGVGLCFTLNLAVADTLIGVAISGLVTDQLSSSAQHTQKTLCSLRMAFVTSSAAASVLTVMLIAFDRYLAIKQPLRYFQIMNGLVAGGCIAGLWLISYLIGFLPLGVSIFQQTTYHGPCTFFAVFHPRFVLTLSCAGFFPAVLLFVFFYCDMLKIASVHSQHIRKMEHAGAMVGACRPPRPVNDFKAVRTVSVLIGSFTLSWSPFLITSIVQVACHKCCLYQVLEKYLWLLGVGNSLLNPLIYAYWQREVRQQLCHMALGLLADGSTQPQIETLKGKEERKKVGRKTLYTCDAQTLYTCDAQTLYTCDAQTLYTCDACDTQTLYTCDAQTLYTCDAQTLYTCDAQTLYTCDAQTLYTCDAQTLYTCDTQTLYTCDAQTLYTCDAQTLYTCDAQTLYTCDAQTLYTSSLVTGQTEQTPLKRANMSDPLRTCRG
- experiment.description: […] of rat GPR119 activity by homogeneous time resolved fluorescence cyclase (cAMP) assay
assay.readout: log10 EC50 (log10 of the value in µM)

compound.string	log10 EC50
Cc1nc(S(C)(=O)=O)ccc1Oc1ncnc(OC2CCN(C(=O)O[C@H](C)C(F)(F)F)CC2)c1F	-0.96
Cc1nc(S(C)(=O)=O)ccc1Oc1ncnc(OC2CCN(C(=O)c3nc(C(C)(C)F)no3)CC2)c1F	-0.22
Cc1nc(S(C)(=O)=O)ccc1Oc1ncnc(OC2CCN(C(=S)OC3(C)CC3)CC2)c1F	-1.31
Cc1nc(S(C)(=O)=O)ccc1Oc1ncnc(OC2CCN(C(=O)C(C)(C)F)CC2)c1F	-0.53
Cc1nc(S(C)(=O)=O)ccc1Oc1ncnc(OC2CCN(C(=O)c3noc(C(C)(C)F)n3)CC2)c1F	-0.99
Cc1nc(S(C)(=O)=O)ccc1Oc1ncnc(OC2CCN(C(=O)OC(C)(C)C(F)(F)F)CC2)c1F	-1.33
Cc1nc(S(C)(=O)=O)ccc1Oc1ncnc(OC2CCN(C(=O)OC(C)(C)C)CC2)c1F	-1.30
Cc1nc(S(C)(=O)=O)ccc1Oc1ncnc(OC2CCN(C(=O)SC(C)(C)C)CC2)c1F	-1.51
Cc1nc(S(C)(=O)=O)ccc1Oc1ncnc(OC2CCN(C(=O)O[C@H](C)CF)CC2)c1F	0.18

====

- experiment.description: Stability in human hepatocytes assessed as compound remaining after 90 mins
- Assay type: ADME, cell-based, Hepatocyte
- test.context: read-out: Stability
assay.readout: remaining at 1.5 h (%)

compound.string	assay.readout	readout.unit	val
Cc1nc(S(C)(=O)=O)ccc1Oc1ncnc(OC2CCN(C(=O)OC3(C)CC3)CC2)c1F	remaining at 1.5 h	%	100

====

- target.desc: UniProt:Q7TQN8
- experiment.description: […] of rat GPR119 activity by homogeneous time resolved fluorescence cyclase (cAMP) assay relative to AR231453
- Type: functional
assay.readout: Efficacy (%)

compound.string	assay.readout	val
Cc1nc(S(C)(=O)=O)ccc1Oc1ncnc(OC2CCN(C(=O)C(C)(F)F)CC2)c1F	Efficacy	87
CCC(F)(F)C(=O)N1CCC(Oc2ncnc(Oc3ccc(S(C)(=O)=O)nc3C)c2F)CC1	Efficacy	90
Cc1nc(S(C)(=O)=O)ccc1Oc1ncnc(OC2CCN(C(=O)OC3(C(F)(F)F)COC3)CC2)c1F	Efficacy	84
CCc1cnc(C(=O)N2CCC(Oc3ncnc(Oc4ccc(S(C)(=O)=O)nc4C)c3F)CC2)nc1	Efficacy	80
Cc1nc(S(C)(=O)=O)ccc1Oc1ncnc(OC2CCN(C(=O)OC(C)(C)C#N)CC2)c1F	Efficacy	97
Cc1nc(S(C)(=O)=O)ccc1Oc1ncnc(OC2CCN(C(=O)c3ncc(Cl)cn3)CC2)c1F	Efficacy	77
Cc1nc(S(C)(=O)=O)ccc1Oc1ncnc(OC2CCN(C(=O)C(C)(C)F)CC2)c1F	Efficacy	74
Cc1nc(S(C)(=O)=O)ccc1Oc1ncnc(OC2CCN(C(=O)OC3CCC3)CC2)c1F	Efficacy	81
Cc1nc(S(C)(=O)=O)ccc1Nc1ncnc(OC2CCN(C(=O)OC(C)C)CC2)c1F	Efficacy	85
Cc1nc(S(C)(=O)=O)ccc1Oc1ncnc(OC2CCN(C(=O)SC(C)C)CC2)c1F	Efficacy	81
COc1c(Nc2ccc(S(C)(=O)=O)nc2C)ncnc1OC1CCN(C(=O)OC(C)C)CC1	Efficacy	89
CCC1(OC(=O)N2CCC(Oc3ncnc(Oc4ccc(S(C)(=O)=O)nc4C)c3F)CC2)CC1	Efficacy	83
Cc1nc(S(C)(=O)=O)ccc1Oc1ncnc(OC2CCN(C(=S)OC(C)C)CC2)c1F	Efficacy	47
Cc1nc(S(C)(=O)=O)ccc1Oc1ncnc(OC2CCN(C(=O)OC3(C)CC3)CC2)c1F	Efficacy	93
Cc1nc(S(C)(=O)=O)ccc1Oc1ncnc(OC2CCN(C(=O)OC(C)(C)CF)CC2)c1F	Efficacy	95
Cc1nc(S(C)(=O)=O)ccc1Oc1ncnc(OC2CCN(C(=O)O[C@H](C)C(F)(F)F)CC2)c1F	Efficacy	85
Cc1nc(S(C)(=O)=O)ccc1Oc1ncnc(OC2CCN(C(=O)SC3(C)CC3)CC2)c1F	Efficacy	77
Cc1nc(S(C)(=O)=O)ccc1Oc1ncnc(OC2CCN(C(=S)OC3(C)CC3)CC2)c1F	Efficacy	49
Cc1nc(S(C)(=O)=O)ccc1Oc1ncnc(OC2CCN(C(=O)O[C@H](C)CF)CC2)c1F	Efficacy	79
Cc1nc(S(C)(=O)=O)ccc1Oc1ncnc(OC2CCN(C(=O)OC(C)C)CC2)c1F	Efficacy	77
Cc1nc(S(C)(=O)=O)ccc1Oc1ncnc(OC2CCN(C(=O)c3nc(C(C)(C)F)no3)CC2)c1F	Efficacy	84
Cc1nc(S(C)(=O)=O)ccc1Oc1ncnc(OC2CCN(C(=O)OC3(C(F)(F)F)CCC3)CC2)c1F	Efficacy	82
Cc1nc(S(C)(=O)=O)ccc1Oc1ncnc(OC2CCN(C(=O)C3CCCC3)CC2)c1F	Efficacy	83
Cc1nc(S(C)(=O)=O)ccc1Oc1ncnc(OC2CCN(C(=O)OC(C)(C)C)CC2)c1F	Efficacy	97
Cc1nc(S(C)(=O)=O)ccc1Oc1ncnc(OC2CCN(C(=O)C(F)(F)F)CC2)c1F	Efficacy	76
Cc1nc(S(C)(=O)=O)ccc1Oc1ncnc(OC2CCN(C(=O)SC3CCC3)CC2)c1F	Efficacy	81

====

- target.desc: Glucose-dependent insulinotropic receptor (Rattus norvegicus)
- Sequence (Q7TQN8 whole entry): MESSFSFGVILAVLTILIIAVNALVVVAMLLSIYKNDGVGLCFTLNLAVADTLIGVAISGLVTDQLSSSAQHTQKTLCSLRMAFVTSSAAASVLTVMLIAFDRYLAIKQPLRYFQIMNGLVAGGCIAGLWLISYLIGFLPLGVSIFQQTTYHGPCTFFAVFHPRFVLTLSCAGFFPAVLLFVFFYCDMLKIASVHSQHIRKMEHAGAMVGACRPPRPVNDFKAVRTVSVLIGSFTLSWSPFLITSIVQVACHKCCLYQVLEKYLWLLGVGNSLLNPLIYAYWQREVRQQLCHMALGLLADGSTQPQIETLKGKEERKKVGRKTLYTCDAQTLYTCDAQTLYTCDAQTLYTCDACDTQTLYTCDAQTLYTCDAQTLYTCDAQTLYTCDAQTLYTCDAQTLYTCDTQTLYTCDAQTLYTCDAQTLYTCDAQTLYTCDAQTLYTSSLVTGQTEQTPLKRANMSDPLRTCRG
- experiment.description: […] of rat GPR119 activity by homogeneous time resolved fluorescence cyclase (cAMP) assay
assay.readout: EC50 (nM)

compound.string	assay.readout	val
CCC(F)(F)C(=O)N1CCC(Oc2ncnc(Oc3ccc(S(C)(=O)=O)nc3C)c2F)CC1	EC50	69.2
Cc1nc(S(C)(=O)=O)ccc1Oc1ncnc(OC2CCN(C(=S)OC(C)C)CC2)c1F	EC50	1050
Cc1nc(S(C)(=O)=O)ccc1Oc1ncnc(OC2CCN(C(=O)SC3CCC3)CC2)c1F	EC50	77.4
Cc1nc(S(C)(=O)=O)ccc1Oc1ncnc(OC2CCN(C(=O)OC3(C)CC3)CC2)c1F	EC50	169
Cc1nc(S(C)(=O)=O)ccc1Oc1ncnc(OC2CCN(C(=O)OC3COC3)CC2)c1F	EC50	2500
Cc1nc(S(C)(=O)=O)ccc1Oc1ncnc(OC2CCN(C(=O)C3(F)CCC3)CC2)c1F	EC50	123
Cc1nc(S(C)(=O)=O)ccc1Oc1ncnc(OC2CCN(C(=O)SC3CC3)CC2)c1F	EC50	126

====

Form field: Efficacy (one value per entry).
- target.desc: Glucose-dependent insulinotropic receptor (Homo sapiens)
- experiment.description: […] of human GPR119 activity by homogeneous time resolved fluorescence cyclase (cAMP) assay relative to AR231453
- Assay type: functional

compound.string	Efficacy
Cc1nc(S(C)(=O)=O)ccc1Oc1ncnc(OC2CCN(C(=O)OC(C)(C)CF)CC2)c1F	74%
Cc1nc(S(C)(=O)=O)ccc1Oc1ncnc(OC2CCN(C(=O)C3(C)CC3)CC2)c1F	72%
Cc1nc(S(C)(=O)=O)ccc1Oc1ncnc(OC2CCN(C(=O)SC(C)C)CC2)c1F	95%
Cc1nc(S(C)(=O)=O)ccc1Oc1ncnc(OC2CCN(C(=S)OC(C)C)CC2)c1F	-32%
Cc1nc(S(C)(=O)=O)ccc1Oc1ncnc(OC2CCN(C(=O)OC(C)(C)C)CC2)c1F	81%
